- TEST_SYSTEM: Human Cav3.1 calcium channel (Homo sapiens)
- Construct: expressed in transfected cells; host or cells: HEK-293 natClytin/TASK1+Cav3.1 cell line
- Sequence (O43497 whole entry): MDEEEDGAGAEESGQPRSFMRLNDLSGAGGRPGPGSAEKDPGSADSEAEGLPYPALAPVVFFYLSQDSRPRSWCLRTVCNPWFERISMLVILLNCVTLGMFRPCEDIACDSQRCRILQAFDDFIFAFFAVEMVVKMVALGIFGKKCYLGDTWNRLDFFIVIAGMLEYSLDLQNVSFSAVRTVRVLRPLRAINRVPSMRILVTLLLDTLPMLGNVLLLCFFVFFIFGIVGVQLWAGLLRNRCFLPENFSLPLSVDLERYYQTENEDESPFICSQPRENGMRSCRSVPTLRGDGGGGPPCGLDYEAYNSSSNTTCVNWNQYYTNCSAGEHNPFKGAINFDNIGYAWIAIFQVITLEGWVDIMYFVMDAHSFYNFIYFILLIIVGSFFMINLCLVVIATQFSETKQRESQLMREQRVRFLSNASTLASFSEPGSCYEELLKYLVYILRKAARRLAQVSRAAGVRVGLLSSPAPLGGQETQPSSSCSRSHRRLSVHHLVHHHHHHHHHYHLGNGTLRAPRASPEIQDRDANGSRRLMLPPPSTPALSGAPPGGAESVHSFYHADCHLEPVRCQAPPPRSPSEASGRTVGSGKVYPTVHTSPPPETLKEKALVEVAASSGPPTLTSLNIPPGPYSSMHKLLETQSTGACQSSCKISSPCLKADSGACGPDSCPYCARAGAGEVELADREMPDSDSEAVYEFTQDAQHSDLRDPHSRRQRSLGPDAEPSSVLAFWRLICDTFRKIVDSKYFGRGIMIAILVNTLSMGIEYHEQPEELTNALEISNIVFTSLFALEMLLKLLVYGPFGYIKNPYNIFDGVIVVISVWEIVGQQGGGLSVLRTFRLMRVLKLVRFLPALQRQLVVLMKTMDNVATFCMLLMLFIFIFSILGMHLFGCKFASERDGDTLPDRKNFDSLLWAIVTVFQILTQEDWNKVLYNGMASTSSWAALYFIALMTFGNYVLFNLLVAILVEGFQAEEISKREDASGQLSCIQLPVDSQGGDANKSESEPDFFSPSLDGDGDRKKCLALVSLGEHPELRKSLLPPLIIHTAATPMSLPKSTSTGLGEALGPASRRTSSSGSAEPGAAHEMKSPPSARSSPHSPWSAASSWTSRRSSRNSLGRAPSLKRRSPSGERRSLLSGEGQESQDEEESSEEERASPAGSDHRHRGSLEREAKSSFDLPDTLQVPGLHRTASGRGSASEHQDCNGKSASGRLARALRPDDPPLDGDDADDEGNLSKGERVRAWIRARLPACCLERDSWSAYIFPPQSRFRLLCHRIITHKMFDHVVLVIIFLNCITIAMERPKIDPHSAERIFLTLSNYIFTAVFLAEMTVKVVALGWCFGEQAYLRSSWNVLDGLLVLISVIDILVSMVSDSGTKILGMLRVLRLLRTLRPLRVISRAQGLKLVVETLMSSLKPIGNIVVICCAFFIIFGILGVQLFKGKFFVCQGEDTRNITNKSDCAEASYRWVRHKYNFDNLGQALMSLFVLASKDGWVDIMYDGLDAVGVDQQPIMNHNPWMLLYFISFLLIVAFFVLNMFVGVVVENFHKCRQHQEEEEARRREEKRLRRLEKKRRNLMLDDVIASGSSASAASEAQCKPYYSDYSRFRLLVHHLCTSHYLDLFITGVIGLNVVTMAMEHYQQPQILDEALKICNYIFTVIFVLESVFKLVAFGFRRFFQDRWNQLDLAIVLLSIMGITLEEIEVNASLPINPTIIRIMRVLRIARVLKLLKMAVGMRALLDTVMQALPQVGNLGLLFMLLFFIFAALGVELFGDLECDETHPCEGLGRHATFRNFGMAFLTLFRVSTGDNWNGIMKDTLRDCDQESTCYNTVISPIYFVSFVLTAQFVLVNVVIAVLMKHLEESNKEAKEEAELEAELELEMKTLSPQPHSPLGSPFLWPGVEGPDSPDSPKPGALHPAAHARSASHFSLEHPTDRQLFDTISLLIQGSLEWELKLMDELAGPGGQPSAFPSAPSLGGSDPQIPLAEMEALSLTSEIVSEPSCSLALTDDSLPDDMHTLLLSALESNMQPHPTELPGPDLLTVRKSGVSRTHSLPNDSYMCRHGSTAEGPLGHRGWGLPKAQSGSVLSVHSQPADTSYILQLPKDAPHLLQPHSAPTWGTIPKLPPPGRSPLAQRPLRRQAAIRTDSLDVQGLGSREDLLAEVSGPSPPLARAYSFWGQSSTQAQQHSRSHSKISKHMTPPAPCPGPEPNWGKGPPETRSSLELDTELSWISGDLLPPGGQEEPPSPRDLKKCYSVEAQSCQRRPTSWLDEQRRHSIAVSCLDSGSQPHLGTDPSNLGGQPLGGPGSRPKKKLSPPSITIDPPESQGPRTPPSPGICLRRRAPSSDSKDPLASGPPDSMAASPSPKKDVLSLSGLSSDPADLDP
- PROTOCOL_DETAILS: Human Cav3.1 calcium channel patch clamp assay (SyncroPatch 384PE; single point and IC50, voltage dependent block)
- Assay type: cell-based
- PROTOCOL_CONDITIONS: Testing Conc 1.25; HEK-293 natClytin/TASK1+Cav3.1 cell line, patch clamp

{"COMPOUND": "COc1ccc(Cl)c2nc(CN3CC4CC(C3)N4CC(=O)NC(C)(C)C)[nH]c12", "% Inhibition (Single Point Data)": "95.576%"}
{"COMPOUND": "CC(C)(C)C(=O)NCCN1C2CC1CN(Cc1nc3c(Cl)cc(F)cc3[nH]1)C2", "% Inhibition (Single Point Data)": "94.728%"}
{"COMPOUND": "Cc1cc(NC(=O)CN2C[C@@H]3C[C@H]2CN3CC(=O)NC2(C(F)(F)F)CC2)ccc1F", "% Inhibition (Single Point Data)": "50%"}
{"COMPOUND": "CN(C(=O)CN1C2CC1CN(Cc1nc3c(Cl)cc(F)cc3[nH]1)C2)C1CCCC1", "% Inhibition (Single Point Data)": "91.767%"}
{"COMPOUND": "CC(C)(C)NC(=O)CN1C2CC1CN(CC(=O)Nc1cccc(C(F)F)c1)C2", "% Inhibition (Single Point Data)": "73.866%"}
{"COMPOUND": "Cc1ccc(Cl)cc1NC(=O)CN1CC2CC(C1)N2CC(=O)NC(C)(C)C", "% Inhibition (Single Point Data)": "48.175%"}
{"COMPOUND": "CC(C)(NC(=O)CN1CC2CC1CN2CC(=O)Nc1cc(F)cc(Cl)c1)C(F)(F)F (centres unmarked)", "% Inhibition (Single Point Data)": "89.371%"}
{"COMPOUND": "Cc1cccc2[nH]c(CN3CC4CC(C3)N4CCC3CCC(F)(F)CC3)nc12", "% Inhibition (Single Point Data)": "79.835%"}
